# Test system: Yap1 mRNA
# protocolDescription: Dose-dependent inhibition of human Yap1 in A-431 cells (Example 8, 10,000 cells per well, RTS4814)
# Assay type: cell-based
# conditionsUsed: 500.0 nM; A-431 cells, 10,000 cells per well, free uptake, approximately 48 hours, RTS4814
Strand notation (5' to 3'): a small letter for the sugar, then the base; units joined by * are phosphorothioate-linked, units joined directly phosphodiester-linked; [ ] holds rarer units or linkages, { } end groups; capitals alone tell only the bases. k = constrained ethyl (cEt); [5mC] = 5-methylcytosine; d = 2'-deoxy (DNA)
assayMetric: Yap1 mRNA, % UTC (% UTC)
Field format: number, assumed % UTC, no unit text.

Here are 2 substances together with their reported answers.
substance	Yap1 mRNA, % UTC [% UTC]
1075055 (antisense k[5mC]*kT*kA*dT*dT*dA*dA*dG*dT*dG*dA*dG*d[5mC]*kT*kT*kT) [compound 1075055]	6
1075968 (kT*kA*kT*dT*dT*dA*dA*dG*d[5mC]*d[5mC]*dA*dA*dA*k[5mC]*k[5mC]*kG; antisense) [compound 1075968]	11

From here, focus on the item given below.
Inquiry: Specify reported Yap1 mRNA, % UTC for the substance shown: 1075146 (kG*kT*kA*dT*dT*dA*dA*dG*dG*dG*dA*dT*dT*kT*kT*k[5mC]; antisense) [compound 1075146]
Reply text: 16

----------
# Tested on: Yap1 mRNA
# protocolDescription: Dose-dependent inhibition of human Yap1 in SNU-449 cells (Example 9, RTS36584)
# Format: cell-based
# conditionsUsed: 125.0 nM, free uptake, approximately 48 hours
Strand notation (5' to 3'): a small letter for the sugar, then the base; units joined by * are phosphorothioate-linked, units joined directly phosphodiester-linked; [ ] holds rarer units or linkages, { } end groups; capitals alone tell only the bases. e = 2'-O-(2-methoxyethyl) (MOE); k = constrained ethyl (cEt); [5mC] = 5-methylcytosine; d = 2'-deoxy (DNA)
Classes (% UTC (Yap1 mRNA)): bin A (below 40 % UTC), bin B (40 % UTC to below 50 % UTC), bin C (50 % UTC or more)

substance	system	classification
1198212 (kT*kA*dT*dT*dA*dG*dA*dG*dT*dA*dT*eG*eT*eG*kG*k[5mC]) [compound 1198212]	Yap1 mRNA	bin A
1198815 (kT*kA*dG*dA*dG*dT*dA*dT*dG*dT*dG*kG*e[5mC]*kA*eA*kT; antisense) [compound 1198815]	Yap1 mRNA	bin C
1074461 (kG*kA*kA*dA*dT*dT*dG*dT*d[5mC]*dT*d[5mC]*dA*dT*kG*k[5mC]*k[5mC]) [compound 1074461]	Yap1 mRNA	bin A

Inquiry: Hello team, could you let me know which band the following substance falls into: 1198524 (kT*kG*dT*dA*dT*dG*dT*d[5mC]*dA*dG*dA*eA*kG*eA*kG*eT; antisense) [compound 1198524]
Reply text: bin A

Inquiry: Input 1198365 (k[5mC]*kT*kA*dA*dG*dT*dA*dA*dG*dG*dT*dT*kT*e[5mC]*k[5mC]*e[5mC]; antisense) [compound 1198365] ; output its category
Reply text: bin A

----------
# System: Yap1 mRNA
# protocolDescription: Antisense inhibition of human Yap1 in A-431 cells by cEt gapmers, single dose (Example 4, RTS4814)
# Assay type: cell-based
# conditionsUsed: Table 16; A-431 cells, 5,000 cells per well, free uptake, 2,000 nM, approximately 48 hours; RTS4814; normalized to RIBOGREEN; Yap1 mRNA relative to untreated control cells
# Experimental: Modified oligonucleotides were designed to target a Yap1 nucleic acid and were tested for their effect on Yap1 mRNA level in vitro. The modified oligonucleotides were tested in a series of experiments that had similar culture conditions. […] After a treatment period of approximately 48 hours, RNA was isolated from the cells and Yap1 mRNA levels were measured by quantitative real-time RTPCR. […] Yap1 mRNA levels were normalized to total RNA content, as measured by RIBOGREEN®. […]
Strand notation (5' to 3'): a small letter for the sugar, then the base; units joined by * are phosphorothioate-linked, units joined directly phosphodiester-linked; [ ] holds rarer units or linkages, { } end groups; capitals alone tell only the bases. k = constrained ethyl (cEt); [5mC] = 5-methylcytosine; d = 2'-deoxy (DNA)
Returns the class for an entry based on its YAP1 (% UTC). Class ranges: Low = under 30 % UTC, Medium = from 30 % UTC up to 70 % UTC, High = 70 % UTC and over

substance	classification
1075394 (kT*k[5mC]*kT*dT*dA*dA*d[5mC]*d[5mC]*dT*dA*dT*dG*d[5mC]*k[5mC]*kA*kA; antisense) [Compound 1075394]	Low

Inquiry: Pick a category. Item: 1074402 (antisense kT*kT*kA*dT*dG*dG*dA*dA*dA*dT*dT*dT*d[5mC]*k[5mC]*kG*kG) [Compound 1074402]
Reply text: Low

Inquiry: Bin this entry: 1075874 (k[5mC]*kT*kT*dA*dA*d[5mC]*dA*dA*d[5mC]*d[5mC]*d[5mC]*dT*dA*k[5mC]*kG*kA; antisense) [Compound 1075874]
Reply text: High

Inquiry: Class for 1074306 (antisense k[5mC]*k[5mC]*kT*d[5mC]*dA*d[5mC]*d[5mC]*dT*dG*d[5mC]*d[5mC]*dG*dA*kA*kG*k[5mC]) [Compound 1074306] ?
Reply text: High

Inquiry: Each substance maps to one class by YAP1 (% UTC). Which class for 1076034 (kA*kA*kT*dT*dA*dG*dA*dA*dA*d[5mC]*dT*dT*dG*kG*k[5mC]*k[5mC]; antisense) [Compound 1076034] ?
Reply text: High

Inquiry: Given 1075426 (antisense kG*kT*kA*dT*dT*dA*dT*dT*dA*dA*dT*d[5mC]*d[5mC]*kT*kG*kT) [Compound 1075426] , name the class its YAP1 (% UTC) places it in.
Reply text: Medium
